We use 2 as the dividing line for logP: on or above the line is rule met, below is rule not met.

Worked examples follow.
O=C1CC(Oc2cccc(C(=O)OCc3ccccc3)c2)N1 (stereo not drawn) : rule met
O=C1CC(Oc2ccc(-c3ccccc3)cc2)N1 (stereo not drawn) : rule met
O=C1CC(Sc2ccccn2)N1 (stereo not drawn) : rule not met
O=C1C[C@@H](Sc2ccccc2)N1 : rule not met
CCOC(=O)CN1C(=O)CC1Oc1ccc2ccccc2c1 (stereo not drawn) : rule met
O=C1CC(Oc2c3ccccc3cc3ccccc23)N1 (stereo not drawn) : rule met
O=C1CC(Oc2ccc3ccccc3c2)N1 (stereo not drawn) : rule met
CCOC(=O)CN1C(=O)CC1Oc1ccc(C(=O)C=Cc2ccccc2)cc1 (stereo not drawn) : rule met

Consider the additional compound presented here.
Could you tell me if the measured logP of O=C1CC(Oc2ccc(C(=O)/C=C/c3ccccc3)cc2)N1 (stereo not drawn) reaches 2 or more?
rule met

###

This listing pairs compounds with measured logP.
Answer field: number only, no words.

O=C1CC(Oc2ccc(C(=O)c3ccccc3)cc2)N1 (stereo not drawn) : 2.14

Fill in: logP of O=C1CC(Oc2ccc(C(=O)CCc3ccccc3)cc2)N1 (stereo not drawn) is ___
2.48

Report logP for O=C1CC(Oc2cccc3ccccc23)N1 (stereo not drawn) please.
2.66

Please report the recorded logP for O=C1CC(Sc2ccc3ccccc3c2)N1 (stereo not drawn) .
2.64

###

Reported logP values for a set of compounds
Write the number on its own, no unit after it.

State the recorded logP for this entry: CC(C)(C)OC(=O)CN1C(=O)CC1Oc1ccc2ccccc2c1 (centres undefined)
3.6

Item O=C1CC(Oc2ccccc2C(=O)c2ccccc2)N1 (centres undefined) has what recorded logP?
1.83

Which logP reading was recorded for the compound O=C1CC(Sc2ccc(Cl)cc2)N1 (centres undefined) ?
2.31

# logP lookup, item O=C1CC(Sc2ccccc2C(=O)OCc2ccccc2)N1 (centres undefined)
2.62

###

measured.parameter: logP

// solved cases for logP follow
O=C1CC(Oc2ccc([N+](=O)[O-])cc2)N1 (centres undefined) : 1.85
CCOC(=O)CN1C(=O)CC1Oc1ccc(C(=O)c2ccccc2)cc1 (centres undefined) : 3
O=C1CC(Oc2ccccc2)N1 (centres undefined) : 1.94

Now consider the entry below.
Reported logP, compound CCOC(=O)CN1C(=O)CC1Sc1ccc2ccccc2c1 (centres undefined) : ____
3.4

Reference for the values: the SangsterLogP compilation
